Reference source: patent US20220213181A1

Biological target: T1, Human ANGPTL4(26-406)-FLAG-His6-Avi (human, UniProt Q9BY76 24-406, biotin on the C-terminal Avi tag (BirA) where the protein is immobilised)
T1 construct: the text calls it 20 amino acids), then QP, ANGPTL4 26-406 and FLAG-His6-Avi; the signal peptide is left out here; also called full length human ANGPTL4; hANGPTL4
T1 sequence: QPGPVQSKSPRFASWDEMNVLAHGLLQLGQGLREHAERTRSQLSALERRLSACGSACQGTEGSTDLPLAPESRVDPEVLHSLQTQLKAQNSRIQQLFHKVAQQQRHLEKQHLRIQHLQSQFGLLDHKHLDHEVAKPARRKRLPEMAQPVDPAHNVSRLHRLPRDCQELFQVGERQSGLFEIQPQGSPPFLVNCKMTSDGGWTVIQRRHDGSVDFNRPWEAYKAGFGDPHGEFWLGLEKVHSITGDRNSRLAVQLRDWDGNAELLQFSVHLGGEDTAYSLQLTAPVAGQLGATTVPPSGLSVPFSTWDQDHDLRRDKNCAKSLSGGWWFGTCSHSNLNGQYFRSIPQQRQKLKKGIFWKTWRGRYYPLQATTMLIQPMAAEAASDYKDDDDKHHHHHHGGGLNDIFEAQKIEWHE
Assay: Octet (ForteBio) kinetics, biotinylated antigen on streptavidin sensor, IgG in solution
observable: pKd
# pKd: negative log10 of molar concentration; output just the value

I would be grateful if you could share the reported pKd for NEG318 (antibody, human IgG1, kappa, V domains shown, humanized, hIgG1/kappa, parental antibody 14P18) VH: QVQLVQSGAEVKKPGASVKVSCKASGYTFTSFWITWVRQAPGQGLEWMGDIYPGGATTNYNEKLQGRVTLTVDTSTSTAYMELRSLRSDDTAVYYCARSPPQVGPFDYWGQGTLVTVSS VL: DIQMTQSPSSLSASVGDRVTITCQASDYIYHWLAWYQQKPGKAPKLLISGASSLETGVPSRFSGSGSGKDYTFTISSLQPEDIATYYCQQYWSIPWTFGQGTKLEIKR .
10.35
